target: SARS-CoV-2 full length spike protein, D614G mutant (SARS-CoV-2, UniProt P0DTC2 14-1273)
Exercise: for every item that follows, state its recorded median fold over isotype.
The answer is to be given in fold over isotype; state only the numeric part.

Recorded median fold over isotype for antibody 520 (antibody, V domains shown) VH: QVQLVESGGGVVQPGRSLRLSCAASGFTFSSYAMHWGRQAPGKGLEWVAVISYDGSNKYYADSVKGRFTISRDNSKNTLYLQMNSLRAEDTAVYYCARDGGSGWLLVGNWFDPWGQGTLVTVSS VL: QSALTQPASVSGSPGQSITISCTGTSSDVGGYNYVSWYQQHPGKAPKLMIYDVSNRPSGVSNRFSGSKSGNTASLTISGLQAEDEADYYCSSYTSSITLYVFGTGTKVTVL , please? 7.6

Recorded median fold over isotype for antibody 528 (antibody, V domains shown) VH: QVQLVQSGAEVKKPGSSVKVSCKASGGTFNSNSISWVRQAPGQGLEWMGRIIPILDITMYARKFQGRVTISADKSTGTAYMDLSSLRSEDTAVYYCATDRDDSSGDYYYGMDVWGQGTTVTVSS VL: DIQMTQSPSSLSASVGDRVTITCRASLSISNYLNWYQQKPGKAPNLLIYAASTLQSGVPSRFSGSGSGTDFTLTISSLQPEDFATYYCQQTYITRWTFGQGTKVEIK , please? 3.71

Recorded median fold over isotype for antibody 559 (antibody, V domains shown) VH: QVQLQESGPGLVKLSETLSLTCTVSGYSISSGYYWGWIRQPPGKGLEWIGSIYHSGSTYYNPSLKSRVTISVDTSKNQFSLKLSSVTAADTAVYYCAREETLGSSWYESYIDYWGQGTLVTVSS VL: SYVLTQPPSVSVAPGKTARITCGGNNIGSKSVHWYQQKPGQAPVLVIYYDSDRPSGIPERFSGSNSGNTATLTISRVEAGDEADYYCQVWDSSSDHPRVFGGGTKLTVL , please? 49.5
